Measured values drawn from paper PMC12566703 for this set.

Test system: murine macrophage J774.2 cell line
Test: Cytotoxicity assay, MTT method, 48 h
Assay type: cell-based
Conditions: read-out: Macrophage J774.2 CC50 (µM ± SD)
Procedure: A cytotoxicity assay was performed using the murine macrophage J774.2 cell line, which was recloned from the original ascites and solid tumor J774.1 (according to the manufacturer). […] The metabolic activity of macrophages was determined by the MTT method. The percentage of cell viability was calculated, and the half-maximal cytotoxic concentration (CC50) was determined using probit analysis. […]
Property: CC50 (µM)

INSERT INTO measurements (molecule, target_or_test_system, unit_abbrev, observed) VALUES
  ('CCOC(=O)c1nc(C)c(C(=O)OCCC(C)CCC=C(C)C)cc1-c1ccc(C)cc1 (centres unmarked) [Compound 11b]', 'murine macrophage J774.2 cell line', 'µM', 170),
  ('CNC[C@H](O)[C@@H](O)[C@H](O)[C@H](O)CO.[O]=[Sb](=[O])[OH] [Glc, Glucantime, reference compound]', 'murine macrophage J774.2 cell line', 'µM', 273);

---

IC50: recorded values
Tested on: L. mexicana (MHOM/MX/2017/UABJO17FCQEPS) (FCQEPS) promastigotes
Experiment: In vitro leishmanicidal activity, MTT method, 48 h
Format: cell-based, Leishmania mexicana
Settings: Leishmania mexicana, 48 h, promastigotes, FCQEPS strain, 48 h; read-out: L. mexicana IC50 (µM ± SD) FCQEPS
Property: IC50

INSERT INTO results (compound, target_or_test_system, property, observed) VALUES
  ('CCOC(=O)c1nc(C)c(C(=O)OCc2ccc(C)cc2)cc1-c1ccc(F)cc1', 'L. mexicana (MHOM/MX/2017/UABJO17FCQEPS) (FCQEPS) promastigotes', 'IC50', '> 200 µM'),
  ('CCOC(=O)c1nc(C)c(C(=O)OC2C[C@@H]3CC[C@@]2(C)C3(C)C)cc1-c1ccc(F)cc1 (stereo partly drawn)', 'L. mexicana (MHOM/MX/2017/UABJO17FCQEPS) (FCQEPS) promastigotes', 'IC50', '> 200 µM'),
  ('CCOC(=O)c1nc(C)c(C(=O)OCC23CC4CC(CC(C4)C2)C3)cc1-c1ccccc1 [Compound 10a]', 'L. mexicana (MHOM/MX/2017/UABJO17FCQEPS) (FCQEPS) promastigotes', 'IC50', '≤ 162 µM');

---

System: T. cruzi (A1) epimastigotes
Assay: In vitro trypanocidal activity, Alamar Blue assay, 48 h
Type: cell-based, Trypanosoma cruzi
Settings: read-out: T. cruzi IC50 (µM ± SD) A1; epimastigotes, A1 strain, 48 h
Property: IC50 (µM)

INSERT INTO measurements (compound, target_or_test_system, observed) VALUES
  ('O=C(Cn1ccnc1[N+](=O)[O-])NCc1ccccc1 [Bzn, Benznidazole, reference compound]', 'T. cruzi (A1) epimastigotes', 39.1);

---

Tested on: T. cruzi (A1) epimastigotes
Assay: In vitro trypanocidal activity, Alamar Blue assay, 48 h
Format: cell-based, Trypanosoma cruzi
Conditions: Trypanosoma cruzi, 48 h, read-out: T. cruzi IC50 (µM ± SD) A1, epimastigotes, A1 strain, 48 h
Property: IC50

INSERT INTO results (compound, observed) VALUES
  ('O=C(Cn1ccnc1[N+](=O)[O-])NCc1ccccc1 [Bzn, Benznidazole, reference compound]', '< 39 µM');
